Target: GST-tagged B-RAF RBD (aa 151–230) (Homo sapiens)
Sequence (P15056 151-230): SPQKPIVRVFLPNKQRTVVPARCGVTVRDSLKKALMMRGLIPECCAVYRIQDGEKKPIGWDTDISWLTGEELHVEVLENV
experimentalReadout: pKd
Units for pKd: none; it is -log10 of a concentration expressed in mol/L.

Fill in the recorded pKd for this molecule, with GST-tagged B-RAF RBD (aa 151–230) (Homo sapiens) as test system: `COc1cc(OC)c(/C=C/S(=O)(=O)Cc2ccc(OC)c(NCC(=O)O)c2)c(OC)c1`
9.15

----------
experimentalReadout: pKd
Units for pKd: none; it is -log10 of a concentration expressed in mol/L.

Fill in the recorded pKd for this molecule, with GST-tagged c-RAF RBD (aa 1–149) (Homo sapiens, UniProt P04049) as test system: COc1cc(OC)c(/C=C/S(=O)(=O)Cc2ccc(OC)c(NCC(=O)O)c2)c(OC)c1 [RGS, rigosertib]
Sequence (P04049 1-149): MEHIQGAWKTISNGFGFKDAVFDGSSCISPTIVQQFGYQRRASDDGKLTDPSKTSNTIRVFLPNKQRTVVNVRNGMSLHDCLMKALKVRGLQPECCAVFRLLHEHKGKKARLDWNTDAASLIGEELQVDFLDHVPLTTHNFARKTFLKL
9.74

These entries and their values trace back to paper PMC5006944.
